B1: tRNA (parent)
chain: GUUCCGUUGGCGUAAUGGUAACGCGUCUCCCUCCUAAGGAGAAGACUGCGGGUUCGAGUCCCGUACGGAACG

# Variants of: B1
# method: yeast fitness, log relative to wild type (ln ratio); higher = fitter; tRNA-Arg(CCU), competitive growth, 37 C, 1 M NaCl
Label criterion met when yeast fitness (ln) is at or above -0.3; anything below gets criterion not met.

Reported yeast fitness (ln) reaches at least -0.3 for G6A C27U A43C C46U A69G A70U ?
criterion met

Reported yeast fitness (ln) reaches at least -0.3 for U2G G6U A43C C66A ?
criterion met

Reported yeast fitness (ln) reaches at least -0.3 for G1A U2G G6U A43C C66U A69G A70G ?
criterion not met

Reported yeast fitness (ln) reaches at least -0.3 for U2C G6U C27U A43C A69G A70G C71U ?
criterion met

Reported yeast fitness (ln) reaches at least -0.3 for U2C C27U C66U A70U C71U ?
criterion not met

Reported yeast fitness (ln) reaches at least -0.3 for U2C G6A C27U A43C C66U ?
criterion met

Reported yeast fitness (ln) reaches at least -0.3 for U2G G6U C27U C66A A69G A70G ?
criterion met

Reported yeast fitness (ln) reaches at least -0.3 for G1A G6U C27U A43C C66U A70U C71U ?
criterion not met

Reported yeast fitness (ln) reaches at least -0.3 for G1A U2C C46U ?
criterion met

Reported yeast fitness (ln) reaches at least -0.3 for G1A G6U A43C C66A ?
criterion met

Reported yeast fitness (ln) reaches at least -0.3 for G1A U2C A43C C66U A70U C71U ?
criterion met

Reported yeast fitness (ln) reaches at least -0.3 for G1A U2G G6U A43C C46U C66U A70G C71U ?
criterion not met

Reported yeast fitness (ln) reaches at least -0.3 for G1A G6A C66A C71U ?
criterion met

Reported yeast fitness (ln) reaches at least -0.3 for U2G C27U A43C A69G C71U ?
criterion not met

Reported yeast fitness (ln) reaches at least -0.3 for G1A U2C G6A A70U ?
criterion met
